meta.source: PubChem BioAssay AID1159580

Quick reference for normalized growth among some compounds
Method notes: chemical genetic growth profiling, strain panel (AID 1159580);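 note: tested at 20 µM; growth read once vehicle control cultures reached saturation at 30 °C; 1 = growth at the plate median or of vehicle wells; lower values mean less growth of the strain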
Run conditions: S. cerevisiae deletion strains, growth OD, locus YNL233W, strain BNI4, active compounds read low
The campaign covered roughly 5,500 compounds. About 2,000 (36%) were called active. Roughly 18% stayed inconclusive and do not appear here. The list shows a part of the results.

- Compound: "CCOC(=O)[C@H](CCc1ccccc1)N[C@@H](C)C(=O)N1CCC[C@H]1C(=O)O"
  normalized growth: 1
- Compound: "CN(C)CCCN1c2ccccc2Sc2ccc(Cl)cc21"
  normalized growth: 0.937
- Compound: "COC(=O)c1c(OC)cc2c(c1C)Oc1c(Cl)c(O)c(Cl)c(C)c1C(=O)O2"
  normalized growth: 0.938
- Compound: "CN(C)CCCN1c2ccccc2Sc2ccc(C(F)(F)F)cc21"
  normalized growth: 1.02
- Compound: "O=P1(N(CCCl)CCCl)NCCCO1 (configuration not stated)"
  normalized growth: 1.02
- Compound: "COC(=O)/C(=C1\\OC(=O)C(c2ccccc2)=C1O)c1ccccc1"
  normalized growth: 1.02
- Compound: "Nc1ccc(C(=O)O)cc1"
  normalized growth: 1.01
- Compound: "CCOC(=O)NNc1nncc2ccccc12"
  normalized growth: 0.998
- Compound: "CC(=O)N[C@@H](Cc1c[nH]c2ccccc12)C(N)=O"
  normalized growth: 0.993
- Compound: "CN(C)C(=O)Oc1cccc([N+](C)(C)C)c1"
  normalized growth: 0.988
- Compound: "CN(C)CCCN1c2ccccc2CCc2ccc(Cl)cc21"
  normalized growth: 0.877
- Compound: "CN(C)CCCN1c2ccccc2Sc2ccccc21"
  normalized growth: 1.01

====

Method notes: chemical genetic growth profiling, strain panel (AID 1159580);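 note: tested at 20 µM; growth read once vehicle control cultures reached saturation at 30 °C; 1 = growth at the plate median or of vehicle wells; lower values mean less growth of the strain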
Run conditions: S. cerevisiae deletion strains, growth OD, locus YDL035C, strain GPR1, active compounds read low
Out of some 5,500 compounds screened, about 2,000 (36%) were called active. Roughly 18% stayed inconclusive and do not appear here. The list shows a part of the results.

- Molecule: "O=C(O)c1cccnc1"
  normalized growth: 0.968
- Molecule: "CN(C)C(=O)Oc1cccc([N+](C)(C)C)c1"
  normalized growth: 0.997
- Molecule: "CC(CCc1ccccc1)NCC(O)c1ccc(O)c(C(N)=O)c1 (configuration not stated)"
  normalized growth: 1.01
- Molecule: "CC12CCC(=O)C=C1CCC1C2[C@@H](O)CC2(C)C1CC[C@]2(O)C(=O)COP(=O)(O)O (some centres not stated)"
  normalized growth: 1.01
- Molecule: "Nc1ccc(S(=O)(=O)NC(=O)c2ccccc2)cc1"
  normalized growth: 1.01
- Molecule: "CC(=O)Oc1c(Cl)c(C)c2c(c1Cl)OC(=O)c1c(C)c(Cl)c(OC(C)=O)c(Cl)c1O2"
  normalized growth: 0.86
- Molecule: "CC(C)CC(NC(=O)OCC1c2ccccc2-c2ccccc21)C(=O)O (configuration not stated)"
  normalized growth: 0.998
- Molecule: "COC(=O)c1c(OC)cc2c(c1C)Oc1c(Cl)c(OC(C)=O)c(Cl)c(C)c1C(=O)O2"
  normalized growth: 1.01
- Molecule: "N=C(N)N"
  normalized growth: 1.03
- Molecule: "COC(=O)c1c(C)c2c(c(C)c1OC)OC(=O)c1c(C)c(Cl)c(OC)c(Cl)c1O2"
  normalized growth: 1.03
- Molecule: "CCCN(CCC)S(=O)(=O)c1ccc(C(=O)O)cc1"
  normalized growth: 0.998
- Molecule: "CC(C)(C)NCC(O)c1ccc(O)c(CO)c1 (configuration not stated)"
  normalized growth: 1.04
- Molecule: "CC(C)=CC1C(C(=O)O)C1(C)C (configuration not stated)"
  normalized growth: 0.998
- Molecule: "CC(=O)N[C@@H](Cc1c[nH]c2ccccc12)C(N)=O"
  normalized growth: 0.985
- Molecule: "CC(C)CCCC(C)[C@H]1CCC2C3C(=O)C=C4C[C@@H](O)CC[C@]4(C)C3CC[C@@]21C (some centres not stated)"
  normalized growth: 1.04
- Molecule: "CC(=O)O[C@H]1CC[C@@]2(C)C(=CC(=O)C3C4CCC(C(C)CCCC(C)C)[C@@]4(C)CCC32)C1 (some centres not stated)"
  normalized growth: 1.02
- Molecule: "CO[C@H]1CC(O[C@@H]2/C(C)=C/C[C@@H]3C[C@@H](C[C@]4(CC[C@H](C)[C@@H](C5CCCCC5)O4)O3)OC(=O)[C@@H]3C=C(C)/C(=N\\O)[C@H]4OC/C(=C\\C=C\\[C@@H]2C)[C@]43O)O[C@@H](C)C1O (some centres not stated)"
  normalized growth: 0.949
- Molecule: "C=C(C)C1CCC(C)(O)C2CC3OC3(C)C2C1 (configuration not stated)"
  normalized growth: 1.01
- Molecule: "Nc1ccc(C(=O)O)cc1"
  normalized growth: 1.01
- Molecule: "COc1cc(C/C=C/c2ccccc2)c(OC)cc1O"
  normalized growth: 1.04
- Molecule: "COC(=O)c1c(C)c2c(c(C)c1O)OC(=O)c1c(C)c(Cl)c(O)c(Cl)c1O2"
  normalized growth: 0.894
- Molecule: "O=C(O)C1=CCCNC1"
  normalized growth: 0.99
